- Organism: Cavia porcellus
- assay_summary: Sumatriptan induced inhibition of potassium evoked [3H]5-HT release from guinea pig cortex slices
- Type: functional
endpoint_label: Release (%)
# value in %; strip the unit string

compound=COc1ccc(NC(=O)N2CCC(c3c[nH]c4ccc(C#N)cc34)CC2)cc1N1CCN(C)CC1 numeric_readout=167

Item COc1ccc(NC(=O)N2CCC(CCc3c[nH]c4ccccc34)CC2)cc1N1CCN(C)CC1 : provide Release 121

* * *

Data export: log10(IC50) values recorded with 5-hydroxytryptamine receptor 1A (Rattus norvegicus).
Sequence (P19327 whole entry): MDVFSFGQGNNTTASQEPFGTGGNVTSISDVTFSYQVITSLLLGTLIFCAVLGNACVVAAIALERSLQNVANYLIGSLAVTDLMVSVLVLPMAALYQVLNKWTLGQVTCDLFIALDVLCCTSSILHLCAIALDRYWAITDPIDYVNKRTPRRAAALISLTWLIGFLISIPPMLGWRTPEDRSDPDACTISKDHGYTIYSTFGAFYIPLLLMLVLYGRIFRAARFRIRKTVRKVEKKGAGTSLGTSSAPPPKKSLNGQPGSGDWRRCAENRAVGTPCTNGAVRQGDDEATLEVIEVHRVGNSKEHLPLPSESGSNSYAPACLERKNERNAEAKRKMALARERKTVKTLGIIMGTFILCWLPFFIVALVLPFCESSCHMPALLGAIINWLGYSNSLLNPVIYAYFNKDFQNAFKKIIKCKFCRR
A value of 2 here means IC50 of 100 in nM, since values are log10.

Some compounds with known log10(IC50) results, for comparison:
compound=COc1ccc(NC(=O)N2CCC(c3c[nH]c4cccc(F)c34)CC2)cc1N1CCN(C)CC1 endpoint_label=log10(IC50) numeric_readout=2.48
compound=COc1ccc(NC(=O)N2CCC(c3c[nH]c4ccc(F)cc34)CC2)cc1N1CCN(C)CC1 endpoint_label=log10(IC50) numeric_readout=2.56
compound=CN1CCC2(CC1)COc1ccc(NC(=O)NCCN3CCC(c4c[nH]c5cc(F)ccc45)CC3)cc12 endpoint_label=log10(IC50) numeric_readout=2.85
compound=COc1ccc(NC(=O)N2CCC(c3c[nH]c4ccccc34)CC2)cc1N1CCN(C)CC1 endpoint_label=log10(IC50) numeric_readout=2.60
compound=COc1ccc(NC(=O)NCCc2c[nH]c3ccc(O)cc23)cc1N1CCN(C)CC1 endpoint_label=log10(IC50) numeric_readout=1.76
compound=COc1ccc(NC(=O)NCCN2CCC(c3c[nH]c4cc(F)ccc34)CC2)cc1N1CCN(C)CC1 endpoint_label=log10(IC50) numeric_readout=2.20

Shift focus to the following entry.
Item COc1ccc(NC(=O)N2CCC(c3c[nH]c4ccc(F)cc34)C2)cc1N1CCN(C)CC1 (stereo unspecified) : provide log10(IC50) 2.00

The values you see were collected from ChEMBL document CHEMBL1132979.
